- measuredTarget: Peroxisome proliferator-activated receptor gamma (Homo sapiens)
- Sequence (P37231 whole entry): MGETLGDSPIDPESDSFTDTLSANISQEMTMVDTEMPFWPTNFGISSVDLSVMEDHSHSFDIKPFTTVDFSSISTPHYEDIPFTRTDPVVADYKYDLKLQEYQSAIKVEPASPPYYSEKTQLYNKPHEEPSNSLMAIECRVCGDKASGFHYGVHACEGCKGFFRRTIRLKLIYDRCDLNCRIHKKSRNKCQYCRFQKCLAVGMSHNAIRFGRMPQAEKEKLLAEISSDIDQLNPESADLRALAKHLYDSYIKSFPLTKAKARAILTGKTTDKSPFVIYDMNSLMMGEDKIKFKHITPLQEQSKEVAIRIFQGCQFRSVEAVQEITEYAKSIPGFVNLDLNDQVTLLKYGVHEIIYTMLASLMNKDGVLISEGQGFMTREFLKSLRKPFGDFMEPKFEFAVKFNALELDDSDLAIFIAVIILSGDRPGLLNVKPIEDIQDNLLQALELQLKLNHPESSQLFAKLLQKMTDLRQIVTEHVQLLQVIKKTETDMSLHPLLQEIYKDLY
- experimentalDetails: In vitro inhibition of human Peroxisome proliferator activated receptor gamma
We begin with a simple list: items and their reported IC50.
observationType: IC50 (nM)

compound: COc1ccc2c(c1)c(Cc1ccc(OC(C)(C)C(=O)O)cc1)c(C)n2C(=O)c1ccc(Cl)cc1
relationSign: =
recordedResult: 914
//
compound: COc1ccc2c(c1)c(Cc1ccc(C(=O)O)cc1)c(C)n2C(=O)c1ccc(Cl)cc1
relationSign: =
recordedResult: 4690
//
compound: COc1ccc2c(c1)c(Cc1ccccc1OC(C)C(=O)O)c(C)n2C(=O)c1ccc(Cl)cc1 (stereo not drawn)
relationSign: =
recordedResult: 84
//
compound: CCCC(Oc1cccc(Cc2c(C)n(C(=O)c3ccc(OC)cc3)c3ccc(OC(F)(F)F)cc23)c1)C(=O)O (stereo not drawn)
relationSign: =
recordedResult: 4
//
compound: COc1ccc2c(c1)c(Cc1ccc(OCC(=O)O)cc1)c(C)n2C(=O)c1ccc(Cl)cc1
relationSign: >
recordedResult: 10000
//
compound: CCC(Oc1cccc(Cc2c(C)n(C(=O)c3ccc(OC)cc3)c3ccc(OC(F)(F)F)cc23)c1)C(=O)O (stereo not drawn)
relationSign: =
recordedResult: 3
//
compound: COc1ccc2c(c1)c(Cc1ccccc1OC(C)(C)C(=O)O)c(C)n2C(=O)c1ccc(Cl)cc1
relationSign: =
recordedResult: 79
//
compound: CCC(Oc1ccccc1Cc1c(C)n(C(=O)c2ccc(OC)cc2)c2ccc(OC(F)(F)F)cc12)C(=O)O (stereo not drawn)
relationSign: =
recordedResult: 3
